Ref: the METLIN SMRT retention time set (Domingo-Almenara et al. 2019)

# assay.text: gradient 5% acetonitrile 3 min, to 50% in 2 min, to 85% in 15 min, held 3 min, 100 µL/min
# applied.conditions: column: Zorbax Extend-C18 2.1 x 50 mm; eluents: water / acetonitrile, 0.1% formic acid
measured.attribute: RP-LC retention time (s)

Below: 3 compounds and their reported RP-LC retention time.
[
  {
    "compound": "CCOC(=O)c1ccc(NC(=O)C2=C(C)C(=O)OC23CCN(C(C)C)CC3)cc1",
    "observed.result": 657
  },
  {
    "compound": "CCc1nc(-c2ccc(-c3noc(CNS(=O)(=O)c4ccccc4)n3)cc2)cs1",
    "observed.result": 1020
  },
  {
    "compound": "O=C(Nc1ccc(-c2nnc3n2CCCC3)cc1)c1ccn[nH]1",
    "observed.result": 595
  }
]

(A) CCc1ccc(OCc2nc(CCN(C)C(=O)Nc3ccc(OC)c(OC)c3)no2)cc1
(B) CCOC(=O)c1cn[nH]c1S(=O)(=O)N1CCN(c2ccccn2)CC1
Ask | For this pair, A and B , which shows a numerically higher RP-LC retention time? State the label of the item chosen.
Reply | A

---

# assay.text: gradient 5% acetonitrile 3 min, to 50% in 2 min, to 85% in 15 min, held 3 min, 100 µL/min
# applied.conditions: column: Zorbax Extend-C18 2.1 x 50 mm; eluents: water / acetonitrile, 0.1% formic acid
measured.attribute: RP-LC retention time (s)

[
  {
    "molecule": "O=C(C1CCCN(c2cnc3nccnc3c2)C1)N1CCC(Cc2ccccc2)CC1 (stereo not drawn)",
    "RP-LC retention time / s": 892
  },
  {
    "molecule": "NC(=O)C1(c2cccc(F)c2)CC1",
    "RP-LC retention time / s": 694
  },
  {
    "molecule": "Cc1ccc(NC(=O)Cn2cc(C(=O)N3CCCC3)c(=O)c3ccc(C)nc32)cc1",
    "RP-LC retention time / s": 713
  }
]

---

# assay.text: gradient 5% acetonitrile 3 min, to 50% in 2 min, to 85% in 15 min, held 3 min, 100 µL/min
# applied.conditions: column: Zorbax Extend-C18 2.1 x 50 mm; eluents: water / acetonitrile, 0.1% formic acid
measured.attribute: RP-LC retention time (s)

[
  {
    "molecule": "CC(C)CCN1CCC(N2CCN(S(=O)(=O)c3ccc(F)cc3F)CC2)C1=O (centres undefined)",
    "result.unit": "s",
    "RP-LC retention time": 690
  },
  {
    "molecule": "COc1ccccc1N(CN1CCCC1=O)C(=O)COc1ccccc1",
    "result.unit": "s",
    "RP-LC retention time": 699
  },
  {
    "molecule": "O=C(Nc1cnn(-c2ncc(N3CCCCC3)cn2)c1)c1ccncc1",
    "result.unit": "s",
    "RP-LC retention time": 662
  },
  {
    "molecule": "O=C(NCCc1c[nH]c2ccccc12)c1ccc(N2C(=O)CCS2(=O)=O)cc1",
    "result.unit": "s",
    "RP-LC retention time": 728
  }
]

---

# assay.text: gradient 5% acetonitrile 3 min, to 50% in 2 min, to 85% in 15 min, held 3 min, 100 µL/min
# applied.conditions: column: Zorbax Extend-C18 2.1 x 50 mm; eluents: water / acetonitrile, 0.1% formic acid
measured.attribute: RP-LC retention time (s)

[
  {
    "molecule": "Cc1sc(-c2cc(C(F)(F)F)[nH]n2)cc1S(=O)(=O)N1CCN(c2ccc(F)cc2)CC1",
    "observed.result": 1110
  },
  {
    "molecule": "Cc1ccc(-c2nc(NCC3CCCO3)ncc2C(=O)O)cc1 (stereo not given)",
    "observed.result": 735
  },
  {
    "molecule": "COc1ccc(Cl)c2c(=O)c3c([nH]c12)CCN(CC(=O)Nc1cc(C)ccc1C)C3",
    "observed.result": 649
  }
]

(P) CSc1cccc(NC(=O)c2cnc(-c3ccc(C)cc3)nc2-c2ccncc2)c1
(Q) Cn1nc2n(c1=O)CCN(C(=O)c1cc(C3CC3)[nH]n1)CC2
Ask | For this pair, P and Q , which shows a numerically higher RP-LC retention time? State the label of the item chosen.
Reply | P
(P: 1010 s, Q: 575 s)

(1) COC(=O)c1ccc2c(=O)n(-c3cccc(C)c3)c(N3CCCC3)nc2c1
(2) CC1(C)CNc2cc(NC(=O)c3cccnc3NCc3ccncc3)ccc21
Ask | For this pair, 1 and 2 , which shows a numerically higher RP-LC retention time? State the label of the item chosen.
Reply | 1
(1: 953 s, 2: 603 s)

(1) CCOc1ccc2cccc(NC(=O)Cc3cccc(OC)c3)c2n1
(2) COc1cccc(CNC(=O)N2CCC(N3CCN(Cc4cccc(F)c4)C(=O)C3=O)CC2)c1
Ask | For this pair, 1 and 2 , which shows a numerically higher RP-LC retention time? State the label of the item chosen.
Reply | 1
(1: 1120 s, 2: 688 s)
